Target: AGO2 T357M (Homo sapiens, UniProt Q9UKV8 1-859, T357M;S387D;S824A;S828D;S831D;S834A)
Sequence (Q9UKV8 whole entry T357M/S387D/S824A/S828D/S831D/S834A): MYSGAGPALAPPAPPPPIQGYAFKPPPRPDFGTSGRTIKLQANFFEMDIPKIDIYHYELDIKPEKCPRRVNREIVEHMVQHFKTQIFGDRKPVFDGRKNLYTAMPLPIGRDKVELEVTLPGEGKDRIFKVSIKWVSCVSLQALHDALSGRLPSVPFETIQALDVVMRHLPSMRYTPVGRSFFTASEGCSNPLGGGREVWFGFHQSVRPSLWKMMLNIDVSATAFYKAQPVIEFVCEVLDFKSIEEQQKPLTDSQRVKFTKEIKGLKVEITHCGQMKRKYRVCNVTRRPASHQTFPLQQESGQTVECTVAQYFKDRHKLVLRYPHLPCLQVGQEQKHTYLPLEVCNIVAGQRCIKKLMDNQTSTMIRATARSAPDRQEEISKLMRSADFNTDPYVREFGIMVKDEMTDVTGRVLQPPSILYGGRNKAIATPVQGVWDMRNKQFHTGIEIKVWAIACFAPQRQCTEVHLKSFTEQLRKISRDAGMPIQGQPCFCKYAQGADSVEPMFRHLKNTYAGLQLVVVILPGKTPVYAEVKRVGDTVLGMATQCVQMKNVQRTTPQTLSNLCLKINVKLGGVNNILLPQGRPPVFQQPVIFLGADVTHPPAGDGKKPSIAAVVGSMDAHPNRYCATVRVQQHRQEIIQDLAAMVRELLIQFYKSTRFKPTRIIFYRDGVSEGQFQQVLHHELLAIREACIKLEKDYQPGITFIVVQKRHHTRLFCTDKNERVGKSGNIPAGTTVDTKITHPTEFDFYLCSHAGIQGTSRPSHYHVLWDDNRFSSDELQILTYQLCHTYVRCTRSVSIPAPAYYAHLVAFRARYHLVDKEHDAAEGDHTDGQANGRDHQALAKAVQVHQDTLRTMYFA
Test: RNA Bind-n-Seq (nitrocellulose filter binding and sequencing); miR-122 guide loaded in AGO2; 60 min incubation; 30 mM Tris pH 8.0, 100 mM potassium acetate, 2 mM magnesium acetate, 0.5 mM TCEP, 0.005% NP-40, 0.01 mg/ml yeast tRNA; 3 nM AGO2-miR-122, 100 nM RNA library; 60; high values mean tight binding
Conditions: protein: recombinant; tags: His6 (N-terminal, pFastBac HTA)
READOUT KIND: binding signal

- BINDER: "ACATTCCG (ssRNA, constant regions annealed to DNA blockers; guide miR-122 5' phosphate) RNA 1: GAGUUCUACAGUCCGACGAUCCCAACACAUUCCGCACCUGGAAUUCUCGGGUGCCAA RNA 2: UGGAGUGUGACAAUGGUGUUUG DNA 1: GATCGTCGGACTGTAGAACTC DNA 2: TTGGCACCCGAGAATTCCA"
  ASSAY VALUE: "0.428 fold enrichment over input"
- BINDER: "ACGTTTCA (ssRNA, constant regions annealed to DNA blockers; guide miR-122 5' phosphate) RNA 1: GAGUUCUACAGUCCGACGAUCCCAACACGUUUCACACCUGGAAUUCUCGGGUGCCAA RNA 2: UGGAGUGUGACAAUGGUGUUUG DNA 1: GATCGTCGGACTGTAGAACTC DNA 2: TTGGCACCCGAGAATTCCA"
  ASSAY VALUE: "0.572 fold enrichment over input"
- BINDER: "ATATCTCG (ssRNA, constant regions annealed to DNA blockers; guide miR-122 5' phosphate) RNA 1: GAGUUCUACAGUCCGACGAUCCCAACAUAUCUCGCACCUGGAAUUCUCGGGUGCCAA RNA 2: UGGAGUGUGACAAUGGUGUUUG DNA 1: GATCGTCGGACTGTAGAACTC DNA 2: TTGGCACCCGAGAATTCCA"
  ASSAY VALUE: "0.398 fold enrichment over input"
- BINDER: "ACGTTCTG (ssRNA, constant regions annealed to DNA blockers; guide miR-122 5' phosphate) RNA 1: GAGUUCUACAGUCCGACGAUCCCAACACGUUCUGCACCUGGAAUUCUCGGGUGCCAA RNA 2: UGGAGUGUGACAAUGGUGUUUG DNA 1: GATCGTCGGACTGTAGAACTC DNA 2: TTGGCACCCGAGAATTCCA"
  ASSAY VALUE: "0.445 fold enrichment over input"
- BINDER: "ATGTTTCA (ssRNA, constant regions annealed to DNA blockers; guide miR-122 5' phosphate) RNA 1: GAGUUCUACAGUCCGACGAUCCCAACAUGUUUCACACCUGGAAUUCUCGGGUGCCAA RNA 2: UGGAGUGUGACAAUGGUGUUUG DNA 1: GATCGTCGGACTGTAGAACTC DNA 2: TTGGCACCCGAGAATTCCA"
  ASSAY VALUE: "0.58 fold enrichment over input"
- BINDER: "GTGTTTCA (ssRNA, constant regions annealed to DNA blockers; guide miR-122 5' phosphate) RNA 1: GAGUUCUACAGUCCGACGAUCCCAACGUGUUUCACACCUGGAAUUCUCGGGUGCCAA RNA 2: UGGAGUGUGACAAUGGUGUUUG DNA 1: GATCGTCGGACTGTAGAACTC DNA 2: TTGGCACCCGAGAATTCCA"
  ASSAY VALUE: "0.587 fold enrichment over input"
- BINDER: "ATGTTTTA (ssRNA, constant regions annealed to DNA blockers; guide miR-122 5' phosphate) RNA 1: GAGUUCUACAGUCCGACGAUCCCAACAUGUUUUACACCUGGAAUUCUCGGGUGCCAA RNA 2: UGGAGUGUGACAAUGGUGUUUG DNA 1: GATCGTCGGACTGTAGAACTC DNA 2: TTGGCACCCGAGAATTCCA"
  ASSAY VALUE: "0.607 fold enrichment over input"
- BINDER: "ATATCTTG (ssRNA, constant regions annealed to DNA blockers; guide miR-122 5' phosphate) RNA 1: GAGUUCUACAGUCCGACGAUCCCAACAUAUCUUGCACCUGGAAUUCUCGGGUGCCAA RNA 2: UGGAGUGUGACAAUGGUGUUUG DNA 1: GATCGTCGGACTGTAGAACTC DNA 2: TTGGCACCCGAGAATTCCA"
  ASSAY VALUE: "0.513 fold enrichment over input"
- BINDER: "ACGTTTCG (ssRNA, constant regions annealed to DNA blockers; guide miR-122 5' phosphate) RNA 1: GAGUUCUACAGUCCGACGAUCCCAACACGUUUCGCACCUGGAAUUCUCGGGUGCCAA RNA 2: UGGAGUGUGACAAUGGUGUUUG DNA 1: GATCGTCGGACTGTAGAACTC DNA 2: TTGGCACCCGAGAATTCCA"
  ASSAY VALUE: "0.445 fold enrichment over input"
- BINDER: "GTATCCCA (ssRNA, constant regions annealed to DNA blockers; guide miR-122 5' phosphate) RNA 1: GAGUUCUACAGUCCGACGAUCCCAACGUAUCCCACACCUGGAAUUCUCGGGUGCCAA RNA 2: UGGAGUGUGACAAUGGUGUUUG DNA 1: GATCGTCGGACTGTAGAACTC DNA 2: TTGGCACCCGAGAATTCCA"
  ASSAY VALUE: "0.614 fold enrichment over input"
- BINDER: "ACATCTCA (ssRNA, constant regions annealed to DNA blockers; guide miR-122 5' phosphate) RNA 1: GAGUUCUACAGUCCGACGAUCCCAACACAUCUCACACCUGGAAUUCUCGGGUGCCAA RNA 2: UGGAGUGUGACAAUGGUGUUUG DNA 1: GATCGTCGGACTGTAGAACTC DNA 2: TTGGCACCCGAGAATTCCA"
  ASSAY VALUE: "0.57 fold enrichment over input"
- BINDER: "GCGTCCCA (ssRNA, constant regions annealed to DNA blockers; guide miR-122 5' phosphate) RNA 1: GAGUUCUACAGUCCGACGAUCCCAACGCGUCCCACACCUGGAAUUCUCGGGUGCCAA RNA 2: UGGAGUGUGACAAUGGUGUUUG DNA 1: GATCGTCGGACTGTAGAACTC DNA 2: TTGGCACCCGAGAATTCCA"
  ASSAY VALUE: "0.751 fold enrichment over input"
- BINDER: "GTATCCCG (ssRNA, constant regions annealed to DNA blockers; guide miR-122 5' phosphate) RNA 1: GAGUUCUACAGUCCGACGAUCCCAACGUAUCCCGCACCUGGAAUUCUCGGGUGCCAA RNA 2: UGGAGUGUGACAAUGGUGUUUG DNA 1: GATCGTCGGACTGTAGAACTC DNA 2: TTGGCACCCGAGAATTCCA"
  ASSAY VALUE: "0.399 fold enrichment over input"
- BINDER: "ACACTCCA (ssRNA, constant regions annealed to DNA blockers; guide miR-122 5' phosphate) RNA 1: GAGUUCUACAGUCCGACGAUCCCAACACACUCCACACCUGGAAUUCUCGGGUGCCAA RNA 2: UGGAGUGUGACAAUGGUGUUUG DNA 1: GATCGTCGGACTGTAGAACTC DNA 2: TTGGCACCCGAGAATTCCA"
  ASSAY VALUE: "154 fold enrichment over input"
- BINDER: "GTATCCTA (ssRNA, constant regions annealed to DNA blockers; guide miR-122 5' phosphate) RNA 1: GAGUUCUACAGUCCGACGAUCCCAACGUAUCCUACACCUGGAAUUCUCGGGUGCCAA RNA 2: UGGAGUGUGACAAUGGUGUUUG DNA 1: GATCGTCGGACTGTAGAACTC DNA 2: TTGGCACCCGAGAATTCCA"
  ASSAY VALUE: "0.563 fold enrichment over input"
